- assay info: Stability of the test compounds in the culture medium (HPLC)
- Type: physicochemical
- condition context: 10 μM, 1% DMSO, 37° C., HPLC; read-out: half-life in the medium of the proliferating cells (converted)
reported property: half-life at 10 μM (h)
Note: unit h is implicit; provide only the numeric part.

Recorded half-life at 10 μM (compound `CC(=O)Oc1ccc(C(c2ccc(OC(C)=O)cc2)c2ccccn2)cc1` ): 2
